Source of measurements: patent US20080032985A1

Test system: S. aureus IP8203 sensitive
observable: MIC

Answered cases to consult:
{"compound": "COc1ccc2ncc(F)c(CCCC(CN(C)C/C=C/c3cc(F)ccc3F)C(=O)[O-])c2c1.[Na+] (racemic) [Example 10]", "MIC": "0.12 to 1 µg/mL"}
{"compound": "COc1ccc2ncc(F)c(CCCC(CNCCSc3cccs3)C(=O)O)c2c1 (racemic) [Example 11]", "MIC": "0.12 to 1 µg/mL"}
{"compound": "COc1ccc2ncc(F)c(CCCC(CNCCSc3cc(F)ccc3F)C(=O)O)c2c1 (racemic) [Example 12]", "MIC": "0.12 to 1 µg/mL"}
{"compound": "COc1ccc2ncc(F)c(CCCC(CNC/C=C/c3cc(F)ccc3F)C(=O)O)c2c1 (racemic) [Example 5]", "MIC": "0.12 to 1 µg/mL"}
{"compound": "COc1ccc2ncc(F)c(CCCC(CNCCOc3cc(F)ccc3F)C(=O)O)c2c1 (racemic) [Example 13]", "MIC": "0.12 to 1 µg/mL"}

Now consider the entry below.
State its MIC on S. aureus IP8203 sensitive: COc1ccc2ncc(F)c(CCCC(CNCCCc3cc(F)ccc3F)C(=O)O)c2c1 (racemic) [Example 8] 0.12 to 1 µg/mL
